- TESTED_TARGET: Cytochrome P450 2C19 (Homo sapiens, UniProt P33261)
- Sequence (P33261 whole entry): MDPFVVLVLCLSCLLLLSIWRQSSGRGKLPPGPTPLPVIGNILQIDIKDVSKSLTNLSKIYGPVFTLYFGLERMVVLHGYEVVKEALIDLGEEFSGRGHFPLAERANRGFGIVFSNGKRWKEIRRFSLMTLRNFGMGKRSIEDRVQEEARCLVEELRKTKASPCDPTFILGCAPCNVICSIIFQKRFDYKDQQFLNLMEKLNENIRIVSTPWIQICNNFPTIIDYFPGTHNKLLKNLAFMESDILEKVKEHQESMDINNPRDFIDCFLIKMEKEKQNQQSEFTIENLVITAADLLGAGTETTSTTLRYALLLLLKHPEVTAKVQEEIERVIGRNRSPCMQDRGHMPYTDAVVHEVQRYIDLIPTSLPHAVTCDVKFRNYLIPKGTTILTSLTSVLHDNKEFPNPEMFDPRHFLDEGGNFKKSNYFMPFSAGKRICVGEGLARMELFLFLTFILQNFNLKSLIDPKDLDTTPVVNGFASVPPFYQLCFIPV
- PROTOCOL_DETAILS: Cytochrome panel assay with activity outcomes. Panel member name: p450-cyp2c19 Compounds with AC50 equal or less than 10 uM are considered active
- Format: functional
- CONDITION_SUMMARY: read-out: AC50
The entries below come with measured AC50 values attached.

{"SMILES_NOTATION": "COc1ccc(C(=O)N/C(=C/c2cccs2)C(=O)NCCCn2ccnc2)cc1OC", "TESTED_TARGET": "Cytochrome P450 2C19 (Homo sapiens, UniProt P33261)", "AC50": "8.91 µM (inconclusive)"}
{"SMILES_NOTATION": "C#C[C@@]1(O)CC[C@@H]2[C@@H]3CCC4=CC(=O)CC[C@@H]4[C@H]3CC[C@]21CC", "TESTED_TARGET": "Cytochrome P450 2C19 (Homo sapiens, UniProt P33261)", "AC50": "0.0794 µM (inconclusive)"}
{"SMILES_NOTATION": "O=[N+]([O-])c1ccc2c(c1)N=C1O[C@H](c3c[nH]c4ccc(COc5ccccc5)cc34)C(O)=C1N2", "TESTED_TARGET": "Cytochrome P450 2C19 (Homo sapiens, UniProt P33261)", "AC50": "3.16 µM (inconclusive)"}
{"SMILES_NOTATION": "Cn1c(/C(C#N)=C(\\O)c2ccc(S(=O)(=O)N3CCCCC3)cc2)nc2ccccc21", "TESTED_TARGET": "Cytochrome P450 2C19 (Homo sapiens, UniProt P33261)", "AC50": "10 µM (inconclusive)"}

###

The entries below come with measured EC50 values attached.
- Tested on: H4
- PROTOCOL_DETAILS: Luminescence Cell-Based Dose Response HTS to Identify Activators of 5'UTR Stem-Loop Driven Prion Protein mRNA Translation in H4 Neuroglioblastoma Cells. [Related pubchem assays: 1829 (Project Summary), 1814 (Primary HTS)]
- Assay type: functional
- CONDITION_SUMMARY: Homo sapiens
Calls of active or inactive are those of the source.
PROPERTY_NAME: EC50

{"MOLECULE": "COc1cccc(C2(O)CC(C(F)(F)F)=NN2C(=O)c2ccccn2)c1 (stereo not drawn)", "TESTED_TARGET": "H4", "PROPERTY_NAME": "EC50", "REPORTED": "7.55 µM (active)"}
{"MOLECULE": "COc1ccc(-c2cc3cc(OC)c(OC)cc3cn2)cc1OC", "TESTED_TARGET": "H4", "PROPERTY_NAME": "EC50", "REPORTED": "18 µM (active)"}
{"MOLECULE": "CCCOc1ccc(OCCSc2nnc(N)s2)cc1", "TESTED_TARGET": "H4", "PROPERTY_NAME": "EC50", "REPORTED": "15.2 µM (active)"}

###

- TESTED_TARGET: Hexokinase HKDC1 (Homo sapiens)
- Sequence (Q2TB90 whole entry): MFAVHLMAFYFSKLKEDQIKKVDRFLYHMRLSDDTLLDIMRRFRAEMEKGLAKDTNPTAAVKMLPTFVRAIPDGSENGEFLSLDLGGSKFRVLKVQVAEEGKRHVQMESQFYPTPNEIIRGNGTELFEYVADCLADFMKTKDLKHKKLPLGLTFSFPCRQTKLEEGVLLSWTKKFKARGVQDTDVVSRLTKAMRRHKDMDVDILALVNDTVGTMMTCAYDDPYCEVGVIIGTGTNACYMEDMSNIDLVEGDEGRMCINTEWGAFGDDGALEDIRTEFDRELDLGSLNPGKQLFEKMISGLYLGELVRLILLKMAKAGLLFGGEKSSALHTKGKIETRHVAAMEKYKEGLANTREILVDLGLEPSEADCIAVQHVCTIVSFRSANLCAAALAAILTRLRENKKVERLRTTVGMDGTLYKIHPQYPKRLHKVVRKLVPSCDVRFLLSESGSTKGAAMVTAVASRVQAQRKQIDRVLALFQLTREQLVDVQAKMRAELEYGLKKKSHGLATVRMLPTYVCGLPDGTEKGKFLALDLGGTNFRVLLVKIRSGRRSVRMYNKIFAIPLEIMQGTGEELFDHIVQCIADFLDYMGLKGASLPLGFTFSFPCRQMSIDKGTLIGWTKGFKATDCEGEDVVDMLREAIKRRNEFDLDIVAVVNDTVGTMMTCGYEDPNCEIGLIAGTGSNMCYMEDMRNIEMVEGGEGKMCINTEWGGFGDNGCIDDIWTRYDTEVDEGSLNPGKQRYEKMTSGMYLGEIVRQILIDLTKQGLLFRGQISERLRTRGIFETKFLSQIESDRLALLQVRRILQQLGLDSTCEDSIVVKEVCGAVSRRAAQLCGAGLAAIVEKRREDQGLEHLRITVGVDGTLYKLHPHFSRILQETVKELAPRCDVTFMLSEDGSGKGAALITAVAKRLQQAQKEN
- PROTOCOL_DETAILS: HKDC1 hexokinase inhibitors, dose response, biochemical, W721R variant (AID 504729)
- Format: functional
Active and inactive are the calls of the source.

{"SMILES_NOTATION": "O=C(C1=C(c2ccccc2)C(=O)c2ccccc2C1=O)c1ccccc1", "IC50": "10.1 µM (active)"}
{"SMILES_NOTATION": "O=S(=O)(Nc1cc(Sc2nc[nH]n2)c(O)c2ccccc12)c1ccccc1", "IC50": "9.93 µM (active)"}
{"SMILES_NOTATION": "COc1ccc(S(=O)(=O)Nc2cc(SCC(=O)O)c(O)c3ccccc23)cc1", "IC50": "12 µM (active)"}
{"SMILES_NOTATION": "O=C1C(Nc2ccc(O)cc2)=C/C(=N/S(=O)(=O)c2cccs2)c2ccccc21", "IC50": "8.31 µM (active)"}

###

- TESTED_TARGET: Protein skinhead-1 (Caenorhabditis elegans)
- Sequence (P34707 whole entry): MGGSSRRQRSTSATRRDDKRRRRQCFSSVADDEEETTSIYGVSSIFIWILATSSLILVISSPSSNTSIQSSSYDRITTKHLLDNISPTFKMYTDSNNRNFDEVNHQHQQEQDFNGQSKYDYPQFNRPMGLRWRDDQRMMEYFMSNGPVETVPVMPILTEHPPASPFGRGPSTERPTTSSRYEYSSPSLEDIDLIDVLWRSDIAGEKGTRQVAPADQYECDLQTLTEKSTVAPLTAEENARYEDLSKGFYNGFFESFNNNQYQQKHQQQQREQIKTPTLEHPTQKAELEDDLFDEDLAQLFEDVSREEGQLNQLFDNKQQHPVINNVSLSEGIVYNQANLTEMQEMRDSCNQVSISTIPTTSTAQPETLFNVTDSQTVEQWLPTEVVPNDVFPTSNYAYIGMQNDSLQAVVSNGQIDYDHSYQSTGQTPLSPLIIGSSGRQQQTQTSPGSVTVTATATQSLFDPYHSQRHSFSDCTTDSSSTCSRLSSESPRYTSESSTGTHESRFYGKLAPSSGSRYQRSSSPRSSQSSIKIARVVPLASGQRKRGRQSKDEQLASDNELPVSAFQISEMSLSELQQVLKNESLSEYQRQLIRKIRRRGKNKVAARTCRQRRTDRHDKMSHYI
- Type: functional
Activity calls are given as the source filed them.
Outcome codes: active, inactive

{"COMPOUND": "CC(C)C1COC(c2cccc3ccccc23)=N1 (stereo not given)", "ASSIGNED_CLASS": "active"}
{"COMPOUND": "CSc1cccc(NC(=O)C2C3C=CC4(O3)C2C(=O)N(CCN2CCOCC2)C4C(=O)NC2CCCCC2)c1 (stereo not given)", "ASSIGNED_CLASS": "inactive"}
{"COMPOUND": "O=C(NC(c1ccc(-c2ccccc2)cc1)c1cnccn1)C1CCN(CCOc2ccc(Cl)cc2Cl)CC1 (stereo not given)", "ASSIGNED_CLASS": "inactive"}
{"COMPOUND": "O=C(Nc1ccc(Cl)c(Cl)c1)Nc1ccon1", "ASSIGNED_CLASS": "inactive"}
{"COMPOUND": "CC1CCN(S(=O)(=O)c2ccc(C(=O)N3CCOCC3)cc2)CC1", "ASSIGNED_CLASS": "inactive"}
{"COMPOUND": "O=C(/C=C/c1ccco1)Nc1ccc(Oc2ccccc2)cc1", "ASSIGNED_CLASS": "inactive"}
{"COMPOUND": "O=C(Nc1nc(-c2ccc(Cl)s2)cs1)c1ccccc1", "ASSIGNED_CLASS": "inactive"}
{"COMPOUND": "Brc1ccc(-c2nnc(-c3ccccc3Br)o2)cc1", "ASSIGNED_CLASS": "inactive"}
{"COMPOUND": "c1ccc2oc(SCc3nc4ccccc4s3)nc2c1", "ASSIGNED_CLASS": "active"}
{"COMPOUND": "CN(C(=O)C1Cc2c(-c3ccccc3Oc3ccccc3)ccnc2O1)c1ccccc1 (stereo not given)", "ASSIGNED_CLASS": "inactive"}
{"COMPOUND": "Cc1ccc(N2CCN(S(=O)(=O)c3ccc4oc(=O)ccc4c3)CC2)c(C)c1", "ASSIGNED_CLASS": "inactive"}
{"COMPOUND": "CCN(C(=O)COC(=O)c1cc(-c2cccc3ccccc23)nc2ccccc12)C1CCS(=O)(=O)C1 (stereo not given)", "ASSIGNED_CLASS": "inactive"}
{"COMPOUND": "c1csc(-c2nc(-c3ccncc3)no2)c1", "ASSIGNED_CLASS": "active"}
{"COMPOUND": "COc1ccc(C(C)C)cc1S(=O)(=O)n1cnc(C)c1", "ASSIGNED_CLASS": "inactive"}
{"COMPOUND": "CCCC1(C(=O)OCC)NC(c2ccc(N(C)C)cc2)C2C(=O)N(c3ccccc3)C(=O)C21 (stereo not given)", "ASSIGNED_CLASS": "inactive"}

###

- TESTED_TARGET: Cytochrome P450 3A4 (Homo sapiens);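 note: CYP3A4 tested as one member of a cytochrome P450 panel screen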
- Sequence (P08684 whole entry): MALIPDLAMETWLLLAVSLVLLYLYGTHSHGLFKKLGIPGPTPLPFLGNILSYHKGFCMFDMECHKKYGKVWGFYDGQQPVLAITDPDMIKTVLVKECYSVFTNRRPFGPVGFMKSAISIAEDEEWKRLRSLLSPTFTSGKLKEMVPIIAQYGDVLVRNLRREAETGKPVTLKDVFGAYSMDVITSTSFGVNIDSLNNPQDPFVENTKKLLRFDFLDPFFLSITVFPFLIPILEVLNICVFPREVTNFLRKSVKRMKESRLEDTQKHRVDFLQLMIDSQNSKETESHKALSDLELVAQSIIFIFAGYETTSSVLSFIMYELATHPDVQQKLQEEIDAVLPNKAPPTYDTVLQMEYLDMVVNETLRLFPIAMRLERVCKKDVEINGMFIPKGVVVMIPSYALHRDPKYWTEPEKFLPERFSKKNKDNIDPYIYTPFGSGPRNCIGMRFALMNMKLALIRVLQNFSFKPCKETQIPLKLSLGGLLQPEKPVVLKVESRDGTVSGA
PROPERTY_NAME: AC50

{"COMPOUND": "O=C(/C=C/c1ccccc1Cl)NCCN1CCOCC1", "PROPERTY_NAME": "AC50", "REPORTED": "15.8 µM (inconclusive)"}
{"COMPOUND": "C#CCCCC(=S)Nc1ccccc1", "PROPERTY_NAME": "AC50", "REPORTED": "25.1 µM (inconclusive)"}
{"COMPOUND": "COC(=O)c1ccccc1NC(=O)c1ccc(Cn2cc(Cl)cn2)o1", "PROPERTY_NAME": "AC50", "REPORTED": "10 µM (inconclusive)"}
{"COMPOUND": "CC(C)(C)C(=O)NC(=S)NCCc1ccccc1", "PROPERTY_NAME": "AC50", "REPORTED": "25.1 µM (inconclusive)"}
{"COMPOUND": "CCOC(=O)C1=C(O)/C(=C/c2cc(OC)c(OC)c(OC)c2)N=C1C", "PROPERTY_NAME": "AC50", "REPORTED": "17.8 µM (inconclusive)"}
{"COMPOUND": "Cc1c(NC(=O)C23CC4CC(CC(C)(C4)C2)C3)c(=O)n(-c2ccccc2)n1C", "PROPERTY_NAME": "AC50", "REPORTED": "31.6 µM (inconclusive)"}
{"COMPOUND": "O=C1C2CCCN2C(c2ccccc2F)N1c1ccc(Cl)cc1 (stereo not drawn)", "PROPERTY_NAME": "AC50", "REPORTED": "14.1 µM (inconclusive)"}
{"COMPOUND": "COc1cccc(Cn2c(=O)c(CCc3ccccc3)nc3cnc(N(C)C)nc32)c1", "PROPERTY_NAME": "AC50", "REPORTED": "2.51 µM (inconclusive)"}
{"COMPOUND": "O=c1ccc2cc(O)c(O)cc2o1", "PROPERTY_NAME": "AC50", "REPORTED": "12.6 µM (inconclusive)"}
{"COMPOUND": "c1ccc([C@H]2CNCc3ccccc32)cc1", "PROPERTY_NAME": "AC50", "REPORTED": "15.8 µM (inconclusive)"}
{"COMPOUND": "O=C(/C=C/c1ccco1)Nc1ccc(Oc2ccccc2)cc1", "PROPERTY_NAME": "AC50", "REPORTED": "39.8 µM (inconclusive)"}
{"COMPOUND": "COc1ccc(NC(=O)N2CC[C@@]3(CCCN(C(=O)c4cccc(F)c4)C3)C2)cc1", "PROPERTY_NAME": "AC50", "REPORTED": "15.8 µM (inconclusive)"}
{"COMPOUND": "COc1cc(/C=C2/C(=N)N3OC(C)=CC3=NC2=O)ccc1OCCOc1ccc(C)cc1", "PROPERTY_NAME": "AC50", "REPORTED": "11.2 µM (inconclusive)"}
{"COMPOUND": "O=[N+]([O-])c1ccc2c(c1)N=C1O[C@H](c3c[nH]c4ccc(COc5ccccc5)cc34)C(O)=C1N2", "PROPERTY_NAME": "AC50", "REPORTED": "3.16 µM (inconclusive)"}
{"COMPOUND": "O=c1cc(CSc2ccccc2)[nH]c(=S)[nH]1", "PROPERTY_NAME": "AC50", "REPORTED": "28.2 µM (inconclusive)"}
{"COMPOUND": "O=[N+]([O-])c1ccc2nc(N3CCNCC3)ccc2c1", "PROPERTY_NAME": "AC50", "REPORTED": "10 µM (inconclusive)"}
{"COMPOUND": "CCOc1ccc(OCC)c(-c2c(=O)n(OCc3ccc(C(C)(C)C)cc3)c3ccccc3[n+]2[O-])c1", "PROPERTY_NAME": "AC50", "REPORTED": "12.6 µM (inconclusive)"}
{"COMPOUND": "Fc1ccc(C(OCCN2CCN(C/C=C\\c3ccccc3)CC2)c2ccc(F)cc2)cc1", "PROPERTY_NAME": "AC50", "REPORTED": "15.8 µM (inconclusive)"}

Provenance of the data: ChEMBL document CHEMBL1201862
